The reader will find reported pEC50 values listed item by item below.
Biological target: T1, human PRLR ECD-Fc fusion protein (human, UniProt P16471 25-233)
T1 construct: not shown: Fc region (captured by goat anti-human Fc)
T1 sequence: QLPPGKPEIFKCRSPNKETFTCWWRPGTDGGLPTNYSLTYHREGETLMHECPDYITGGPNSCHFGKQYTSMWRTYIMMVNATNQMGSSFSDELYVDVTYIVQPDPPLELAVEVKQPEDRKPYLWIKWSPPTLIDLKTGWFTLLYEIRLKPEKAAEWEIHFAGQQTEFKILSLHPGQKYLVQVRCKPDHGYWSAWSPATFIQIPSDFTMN
Test: ELISA on ECD
Reminder that pEC50 means the negative base-10 logarithm of the concentration expressed in mol/L.

Consider the worked cases shown below.
{"Binder": "Ab39 (antibody, human IgG1, kappa, V domains shown, humanized from Ab7; G1; also called Ab4 HC.1a and Ab4 LC.1a) VH: EVQLVQSGAEVKKPGSSVKVSCKASGYTFTSYWIHWVRQAPGQGLEWIGEIDPSDSYTNYNQKFKGRATLTVDKSSSTAYMELSSLRSEDTAVYYCARSFFTNWFAYWGQGTLVTVSS VL: DVVMTQTPLSLSVTPGQPASISCRSSQSLVHSNGNTYLHWYLQKPGQSPQLLIYKVSNRFSGVPDRFSGSGSGTDFTLKISRVEAEDVGVYFCSQSTHVPFTFGGGTKVEIKR", "Value measured": 9.74}
{"Binder": "Ab19 (antibody, human IgG1, kappa, V domains shown, humanized from Ab6; G1; also called Ab1 HC.1a and Ab1 LC.1a) VH: EVQLVQSGAEVKKPGSSVKVSCKASGYTFTTYWMHWVRQAPGQGLEWIGEIDPSDSYSNYNQKFKDRATLTVDKSTSTAYMELSSLRSEDTAVYYCARNGGLGPAWFSYWGQGTLVTVSS VL: DIQMTQSPSSVSASVGDRVTITCKASQYVGTAVAWYQQKPGKSPKLLIYSASNRYTGVPSRFSDSGSGTDFTLTISSLQPEDFATYFCQQYSSYPWTFGGGTKVEIKR", "Value measured": 10.21}

Consider now this further binder.
Bench note: what pEC50 did Ab48 (antibody, human IgG1, kappa, V domains shown, humanized from Ab8; G1; also called Ab3 HC.1a and Ab3 LC.1a) VH: EVQLVQSGAEVKKPGASVKVSCKASGYTFTDYNIHWVRQAPGQGLEWIGYIYPNNDGTGYNQKFKSRATLTVDNSTSTAYMELRSLRSDDTAVYYCARGDGNYVGDMDYWGQGTTVTVSS VL: DIQMTQSPSSLSASVGDRVTITCRASENIYSYLAWYQQKPGKPPKLLVYNAKTLAEGVPSRFSGSGSGTDFTLTISSLQPEDFATYYCQHHYATPFTFGQGTKLEIKR show?
10.13
